Cited source: patent US20230063457A1

Study Target: Phospho-DNA-PK in FaDu Cells (Homo sapiens, UniProt P78527)
Method: Effect of compounds on phospho-DNA-PK in FaDu cells (MesoScale sandwich immunoassay)
Protocol Conditions: 1 hour pre-incubation, 1 μg/ml Neocarzinostatin 2 hours, averaged values, read-out: MSD FaDu IC50
pIC50: −log10 of the molar value.
List of pIC50 values.

Compound | pIC50
c1cnc2cc(N3CCOCC3)nc(O[C@H]3CC[C@@H](c4nnc[nH]4)CC3)c2c1 | 7.21
CS(=O)(=O)[C@H]1CC[C@@H](Oc2nc(N3CCOCC3)cc3ncccc23)CC1 | 5.72
N#C[C@H]1CC[C@@H](Oc2nc(N3CCOCC3)cc3ncccc23)CC1 | 5.74
c1cnc2cc(N3CCOCC3)nc(O[C@H]3CC[C@@H](n4ccnn4)CC3)c2c1 | 6.43
Oc1cnc2cc(N3CCOCC3)nc(O[C@H]3CC[C@@H](c4cccs4)CC3)c2c1 | 5.43
c1cnc(NCCC2CCN(c3nc(N4CCOCC4)cc4ncccc34)CC2)nc1 | 5.60
CC(=O)N1CCN(c2nc(N3CCOCC3)cc3ncccc23)CC1 | 5.42
Cc1nnc([C@H]2CC[C@@H](Oc3nc(N4CCOCC4)cc4ncccc34)CC2)[nH]1 | 6.95
c1cnc(NCC2CN(c3nc(N4CCOCC4)cc4ncccc34)C2)nc1 | 6.15
c1cnc(N2CCC(Oc3nc(N4CCOCC4)cc4ncccc34)CC2)nc1 | 4.86
c1cnc(NC2CCCCN(c3nc(N4CCOCC4)cc4ncccc34)C2)nc1 (stereo not drawn) | 5.05
FC(F)(F)c1cnc(NCC2CCN(c3nc(N4CCOCC4)cc4ncccc34)CC2)nc1 | 5.45
Cn1cnc([C@H]2CC[C@@H](Oc3nc(N4CCOCC4)cc4ncccc34)CC2)n1 | 6.66
c1cnc2cc(N3CCOCC3)nc(OCC3CN(c4ncn[nH]4)C3)c2c1 | 5.77
Cc1cc(C)nc(NCC2CCN(c3nc(N4CCOCC4)cc4ncccc34)CC2)n1 | 5.71
[2H]C1([2H])OC([2H])([2H])C([2H])([2H])N(c2cc3ncccc3c(O[C@H]3CC[C@@H](c4nc[nH]n4)CC3)n2)C1([2H])[2H] | 6.68
Brc1cnc2cc(N3CCOCC3)nc(O[C@H]3CC[C@@H](n4ccnc4)CC3)c2c1 | 6.74
COc1cnc2cc(N3CCOCC3)nc(O[C@H]3CC[C@@H](n4cc(F)cn4)CC3)c2c1 | 6.63
N#Cc1cnc(NCC2CCN(c3nc(N4CCOCC4)cc4ncccc34)CC2)nc1 | 5.62
CS(=O)(=O)N1CCC(Oc2nc(N3CCOCC3)cc3ncccc23)CC1 | 5.74
CCOC(=O)c1cnc(NCC2CCN(c3nc(N4CCOCC4)cc4ncccc34)CC2)nc1 | 5.69
c1cnc(NC2CCC3CN(c4nc(N5CCOCC5)cc5ncccc45)CC32)nc1 (stereo not drawn) | 5.55
CN1CC(CNc2nc(N3CCOCC3)cc3ncccc23)COC1=O (stereo not drawn) | 5.72
Cn1ncnc1[C@H]1CC[C@@H](Oc2nc(N3CCOCC3)cc3ncccc23)CC1 | 6.62
CC(C)(C)OC(=O)N1CCN(c2nc(N3CCOCC3)cc3ncccc23)CC1 | 5.18
CNC(=O)c1ccnc(NCC2CCN(c3nc(N4CCOCC4)cc4ncccc34)CC2)n1 | 5.94
c1cnc(N2CCC3CN(c4nc(N5CCOCC5)cc5ncccc45)CC32)nc1 (stereo not drawn) | 5.35
c1cnc2cc(N3CCOCC3)nc(N3CCC(CNc4nnc[nH]4)CC3)c2c1 | 5.60
c1cnc(NCC2CCN(c3nc(N4CCOCC4)cc4ncccc34)CC2)nc1 | 6.13
C[C@H]1CN(c2ncn[nH]2)CC[C@H]1Oc1nc(N2CCOCC2)cc2ncccc12 | 5.54
CN(C)S(=O)(=O)n1ccnc1C1CCN(c2nc(N3CCOCC3)cc3ncccc23)CC1 | 5.35
Fc1ccnc(NCC2CCN(c3nc(N4CCOCC4)cc4ncccc34)CC2)c1 | 4.98
C[C@@H]1COCCN1c1cc2ncccc2c(O[C@H]2CC[C@@H](c3nc[nH]n3)CC2)n1 | 5.30
